System: guinea pig ileum
run.description: SRS-A activity: contraction of isolated guinea pig ileum (bioassay)
Format: cell-based
run.parameters: Cavia porcellus, read-out: EC50 (concentration giving 50% of the maximal contraction of the ileum produced by natural SRS-A), 37° C, atropine sulfate 10^-6 M and pyrilamine maleate 10^-6 M in bath, average ± S.E., n = 2-5 ileums
Structures can show the parent of a compound that is named as a salt.
measurement.kind: EC50 (nM)

>>> experimental_result("CCCCCC#CCC#C/C=C/C=C/[C@@H](SC[C@H](N)C(=O)O)[C@@H](O)CCCC(=O)O [D, mono ammonium salt]")
1100
